- TEST_CONDITIONS: 308.15 K; 100 kPa; Liquid; Vibrating tube method
Some compounds, each annotated with its measured mass density.

>  <COMPOUND>
CCOCCO [2-ethoxyethan-1-ol]

>  <mass density [kg/m3]>
916.11

$$$$
>  <COMPOUND>
COCCO [2-methoxyethan-1-ol]

>  <mass density [kg/m3]>
951.16

$$$$
>  <COMPOUND>
OCc1ccccc1 [benzenemethanol]

>  <mass density [kg/m3]>
1033.32

$$$$
>  <COMPOUND>
CCCCOCCO [2-butoxyethan-1-ol]

>  <mass density [kg/m3]>
887.97

$$$$

----------
- TEST_CONDITIONS: 298.15 K; 100 kPa; Liquid; Frequency=2 MHz; Linear variable-path acoustic interferometer
This listing pairs compounds with measured speed of sound.
ENDPOINT_LABEL: speed of sound (m/s)

>  <MOL>
OCc1ccccc1

>  <VALUE>
1534.5

$$$$
>  <MOL>
CCCCOCCO

>  <VALUE>
1305

$$$$
>  <MOL>
COCCO

>  <VALUE>
1341.6

$$$$
>  <MOL>
CCOCCO

>  <VALUE>
1301.4

$$$$

----------
Catalogue of mass density values
- TEST_CONDITIONS: 298.15 K; 100 kPa; Liquid; Vibrating tube method
ENDPOINT_LABEL: mass density (kg/m3)

>  <MOL>
COCCO

>  <UOM>
kg/m3

>  <VALUE>
960.29

$$$$
>  <MOL>
CCCCOCCO

>  <UOM>
kg/m3

>  <VALUE>
896.46

$$$$
>  <MOL>
CCOCCO

>  <UOM>
kg/m3

>  <VALUE>
925.36

$$$$
>  <MOL>
OCc1ccccc1

>  <UOM>
kg/m3

>  <VALUE>
1041.05

$$$$

----------
- TEST_CONDITIONS: 303.15 K; 100 kPa; Liquid; Vibrating tube method
compounds and their reported mass density

>  <MOL>
CCOCCO

>  <mass density, kg/m3>
920.72

$$$$
>  <MOL>
OCc1ccccc1

>  <mass density, kg/m3>
1037.15

$$$$
>  <MOL>
CCCCOCCO

>  <mass density, kg/m3>
892.22

$$$$
>  <MOL>
COCCO

>  <mass density, kg/m3>
955.84

$$$$

----------
compounds and their reported mass density
- TEST_CONDITIONS: 313.15 K; 100 kPa; Liquid; Vibrating tube method

>  <COMPOUND>
CCCCOCCO [2-butoxyethan-1-ol]

>  <mass density [kg/m3]>
883.7

$$$$
>  <COMPOUND>
OCc1ccccc1 [benzenemethanol]

>  <mass density [kg/m3]>
1029.46

$$$$
>  <COMPOUND>
COCCO [2-methoxyethan-1-ol]

>  <mass density [kg/m3]>
946.49

$$$$
>  <COMPOUND>
CCOCCO [2-ethoxyethan-1-ol]

>  <mass density [kg/m3]>
911.47

$$$$

----------
Parameter: speed of sound. Scope: all listed entries.
- TEST_CONDITIONS: 308.15 K; 100 kPa; Liquid; Frequency=2 MHz; Linear variable-path acoustic interferometer
Numbers after ± are expanded uncertainties.
ENDPOINT_LABEL: speed of sound

>  <MOL>
OCc1ccccc1

>  <VALUE>
1496 ± 9.1 m/s

$$$$
>  <MOL>
CCOCCO

>  <VALUE>
1274.8 ± 7.9 m/s

$$$$
>  <MOL>
COCCO

>  <VALUE>
1302 ± 7.9 m/s

$$$$
>  <MOL>
CCCCOCCO

>  <VALUE>
1275 ± 7.8 m/s

$$$$

Hello, the source for this data is the NIST ThermoML archive (doi:10.1016/j.jct.2015.08.040), in case you need it.
